Test system: Candida albicans
Experiment: Antimicrobial activity against Candida albicans ATCC 10231 after 24 hrs by spectrophotometric method
Assay type: functional, organism-based
Calls of active or inactive are those of the source. The calls are words filed in the database; no cut-off is given here.

[
  {
    "compound.smiles": "CC[C@H](C)[C@H](NC(=O)[C@@H]1CCCN1C(=O)C(C)(C)NC(=O)[C@@H](NC(=O)[C@@H](NC(=O)[C@H](CCC(N)=O)NC(=O)[C@@](C)(CC)NC(C)=O)C(C)C)C(C)C)C(=O)N[C@@H](CC(C)C)C(=O)NC(C)(C)C(=O)N1CCC[C@H]1C(=O)N[C@H](CO)C(C)C",
    "Activity": "inactive"
  },
  {
    "compound.smiles": "CC[C@@H](C)[C@H](NC(=O)[C@H](CCC(N)=O)NC(=O)[C@@](C)(CC)NC(C)=O)C(=O)N[C@H](C(=O)NC(C)(C)C(=O)N1CCC[C@H]1C(=O)N[C@H](C(=O)N[C@@H](CC(C)C)C(=O)NC(C)(C)C(=O)N1CCC[C@H]1C(=O)N[C@H](CO)C(C)C)[C@@H](C)CC)C(C)C",
    "Activity": "inactive"
  },
  {
    "compound.smiles": "CC[C@@H](C)[C@H](NC(=O)[C@H](CCC(N)=O)NC(=O)C(C)(C)NC(C)=O)C(=O)N[C@H](C(=O)NC(C)(C)C(=O)N1CCC[C@H]1C(=O)N[C@H](C(=O)N[C@@H](CC(C)C)C(=O)NC(C)(C)C(=O)N1CCC[C@H]1C(=O)N[C@H](CO)C(C)C)[C@@H](C)CC)C(C)C",
    "Activity": "inactive"
  }
]
